Here, each record is paired with measured IC50 data.
target or system: human KDR enzyme (Homo sapiens)
Construct: The cytoplasmic domain of human KDR enzyme is cloned in the form of a GST fusion; GST; made in house; host or cells: SF21 insect cells (baculovirus, pFastBac)
assay: Phosphorylation of the substrate PLCγ by the enzyme KDR in vitro (flashplate technique)
Assay type: biochemical
conditions used: Table VII, degrees of activity by IC50 range; read-out: Activity

Some entries whose results are on file:
compound	IC50
Cc1cc(C)cc(CNC(=O)c2cccc3nc(-c4n[nH]c5ccccc45)[nH]c23)c1	0.3 to 3 µM
O=C(NCc1ccc(Oc2ccccc2)cc1)c1cccc2nc(-c3n[nH]c4ccccc34)[nH]c12	> 3 µM

Please report the recorded IC50 for c1coc(-c2ccc3nc(-c4[nH]nc5ccccc45)[nH]c3c2)c1 . 0.3 to 3 µM

And then CC(C)(C)c1ccc(-c2ccc3nc(-c4[nH]nc5ccccc45)[nH]c3c2)cc1 , what is it? > 3 µM

And then O=C(Oc1cc(-c2nc3ccccc3[nH]2)[nH]n1)C1CC1 , what is it? > 3 µM

----------
Here, each record is paired with measured IC50 data.
target or system: human KDR enzyme (Homo sapiens, UniProt P35968)
Construct: The cytoplasmic domain of human KDR enzyme is cloned in the form of a GST fusion; GST; made in house; host or cells: SF21 insect cells (baculovirus, pFastBac)
Sequence (P35968 786-1356 limits assumed): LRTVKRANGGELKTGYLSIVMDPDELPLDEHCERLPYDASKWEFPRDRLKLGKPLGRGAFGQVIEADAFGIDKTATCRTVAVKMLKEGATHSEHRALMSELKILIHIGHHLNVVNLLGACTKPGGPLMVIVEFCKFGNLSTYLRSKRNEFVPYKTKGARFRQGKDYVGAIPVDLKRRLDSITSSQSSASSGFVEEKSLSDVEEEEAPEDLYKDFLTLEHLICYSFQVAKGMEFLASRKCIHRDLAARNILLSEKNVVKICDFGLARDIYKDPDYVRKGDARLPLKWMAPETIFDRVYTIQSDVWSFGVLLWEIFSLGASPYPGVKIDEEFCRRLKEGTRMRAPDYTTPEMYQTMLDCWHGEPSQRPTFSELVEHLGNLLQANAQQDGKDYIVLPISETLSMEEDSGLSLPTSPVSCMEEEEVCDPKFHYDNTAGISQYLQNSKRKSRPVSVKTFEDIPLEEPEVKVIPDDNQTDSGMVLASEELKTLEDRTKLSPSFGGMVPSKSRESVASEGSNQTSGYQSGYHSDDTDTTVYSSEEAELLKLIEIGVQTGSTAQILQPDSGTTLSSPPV
assay: Phosphorylation of the substrate PLCγ by the enzyme KDR in vitro (flashplate technique)
Assay type: biochemical
conditions used: Table VII, degrees of activity by IC50 range; read-out: Activity

Some entries whose results are on file:
compound	IC50
CN1CCN(C(=O)c2ccc3[nH]c(-c4n[nH]c5ccccc45)nc3c2)CC1	0.3 to 3 µM
Clc1ccc(-c2ccc3nc(-c4[nH]nc5ccccc45)[nH]c3c2)cc1Cl	> 3 µM
O=C(COc1cc(-c2nc3ccccc3[nH]2)[nH]n1)c1ccc2ccccc2c1	> 3 µM
N#Cc1ccc(CNC(=O)c2ccc3[nH]c(-c4n[nH]c5ccccc45)nc3c2)cc1	0.3 to 3 µM
O=C(NCc1cccs1)c1ccc2[nH]c(-c3n[nH]c4ccccc34)nc2c1	0.3 to 3 µM
O=C(COc1cc(-c2nc3ccccc3[nH]2)[nH]n1)C1CC1	> 3 µM
FC(F)(F)Oc1ccc(-c2ccc3nc(-c4[nH]nc5ccccc45)[nH]c3c2)cc1	> 3 µM
O=C(Oc1cc(-c2nc3ccccc3[nH]2)[nH]n1)c1ccc(-c2ccccc2)cc1	> 3 µM

Continue with the compound presented below.
Find the measured IC50: item O=C(COc1cc(-c2nc3ccccc3[nH]2)[nH]n1)Nc1ccccc1 , target or system human KDR enzyme (Homo sapiens, UniProt P35968). > 3 µM

----------
target or system: human KDR enzyme (Homo sapiens)
Construct: The cytoplasmic domain of human KDR enzyme is cloned in the form of a GST fusion; GST; made in house; host or cells: SF21 insect cells (baculovirus, pFastBac)
assay: Phosphorylation of the substrate PLCγ by the enzyme KDR in vitro (flashplate technique)
Assay type: biochemical
conditions used: product tested at 10 μM; read-out: % of inhibition of the phosphorylation of PLCγ by KDR (product tested at a concentration of 10 μM)
Here, each record is paired with measured inhibition at 10 µM data.
Answer format: numeric, % implied, no suffix.

Please report the recorded inhibition at 10 µM for CCNC(=O)c1ccc2[nH]c(-c3n[nH]c4ccccc34)nc2c1 . 91.8

And then O=C(Nc1ccccc1)c1ccc2[nH]c(-c3n[nH]c4ccccc34)nc2c1 , what is it? 91.9

And then Cc1cc2nc(-c3cc(-c4cccs4)n[nH]3)[nH]c2cc1C , what is it? 35

And then Brc1ccc2nc(-c3n[nH]c4ccccc34)[nH]c2c1 , what is it? 91.2

----------
target or system: human KDR enzyme (Homo sapiens, UniProt P35968)
Construct: The cytoplasmic domain of human KDR enzyme is cloned in the form of a GST fusion; GST; made in house; host or cells: SF21 insect cells (baculovirus, pFastBac)
assay: Phosphorylation of the substrate PLCγ by the enzyme KDR in vitro (flashplate technique)
Format: biochemical
conditions used: Table VII, degrees of activity by IC50 range; read-out: Activity
pIC50: −log10 of the molar value.
outcome measure: pIC50

compound	pIC50
CC(C)(C)OC(=O)N1CCC(CNC(=O)c2ccc3[nH]c(-c4n[nH]c5ccccc45)nc3c2)CC1	5.52 to 6.52
O=C(NCc1cccc(C(F)(F)F)c1)c1ccc2[nH]c(-c3n[nH]c4ccccc34)nc2c1	< 5.52
O=C(NCc1ccc(Cl)nc1)c1ccc2[nH]c(-c3n[nH]c4ccccc34)nc2c1	> 6.52
c1ccc2sc(-c3ccc4nc(-c5[nH]nc6ccccc56)[nH]c4c3)cc2c1	< 5.52
CN(Cc1ccccc1)C(=O)c1ccc2[nH]c(-c3n[nH]c4ccccc34)nc2c1	5.52 to 6.52

Continue with the compound presented below.
Please report the recorded pIC50 for O=C(c1ccc2[nH]c(-c3n[nH]c4ccccc34)nc2c1)N1CCOCC1 . 5.52 to 6.52

----------
target or system: human KDR enzyme (Homo sapiens, UniProt P35968)
Construct: The cytoplasmic domain of human KDR enzyme is cloned in the form of a GST fusion; GST; made in house; host or cells: SF21 insect cells (baculovirus, pFastBac)
assay: Phosphorylation of the substrate PLCγ by the enzyme KDR in vitro (flashplate technique)
Type: biochemical
conditions used: Activity, Table VII, degrees of activity by IC50 range
pIC50: −log10 of the molar value.
outcome measure: pIC50

Please report the recorded pIC50 for O=C(Cc1ccccc1)Oc1cc(-c2nc3ccccc3[nH]2)[nH]n1 . < 5.52

----------
target or system: human KDR enzyme (Homo sapiens, UniProt P35968)
Construct: The cytoplasmic domain of human KDR enzyme is cloned in the form of a GST fusion; GST; made in house; host or cells: SF21 insect cells (baculovirus, pFastBac)
assay: Phosphorylation of the substrate PLCγ by the enzyme KDR in vitro (flashplate technique)
Type: biochemical
conditions used: read-out: IC50 (μM) on inhibition of the phosphory-lation of PLCγ by KDR
Here, each record is paired with measured IC50 data.
Respond with a number, then the unit of measure.

Some entries whose results are on file:
CCc1cc(-c2nc3cc(C)c(C)cc3[nH]2)[nH]n1 2 µM
CC(C)NC(=O)c1ccc2[nH]c(-c3n[nH]c4ccccc34)nc2c1 0.45 µM
CN(Cc1ccccc1)C(=O)c1ccc2[nH]c(-c3n[nH]c4ccccc34)nc2c1 0.61 µM
O=C(c1ccc2[nH]c(-c3n[nH]c4ccccc34)nc2c1)N1CCOCC1 0.72 µM
O=C(c1ccc2[nH]c(-c3n[nH]c4ccccc34)nc2c1)N1CCCC1 0.35 µM
O=C(NCCc1ccccc1)c1ccc2[nH]c(-c3n[nH]c4ccccc34)nc2c1 0.33 µM

Please report the recorded IC50 for O=C(NCC1CCCCC1)c1ccc2[nH]c(-c3n[nH]c4ccccc34)nc2c1 . 0.26 µM

----------
target or system: human KDR enzyme (Homo sapiens, UniProt P35968)
Construct: The cytoplasmic domain of human KDR enzyme is cloned in the form of a GST fusion; GST; made in house; host or cells: SF21 insect cells (baculovirus, pFastBac)
assay: Phosphorylation of the substrate PLCγ by the enzyme KDR in vitro (flashplate technique)
Format: biochemical
conditions used: Table VII, degrees of activity by IC50 range; read-out: Activity
Here, each record is paired with measured IC50 data.

Some entries whose results are on file:
Fc1ccc(-c2ccc3nc(-c4[nH]nc5ccccc45)[nH]c3c2)c(F)c1 0.3 to 3 µM
c1ccc2c(-c3ccc4nc(-c5[nH]nc6ccccc56)[nH]c4c3)cccc2c1 > 3 µM
O=C(NCc1cccc(Br)c1)c1cccc2nc(-c3n[nH]c4ccccc34)[nH]c12 > 3 µM
Fc1ccc(-c2ccc3nc(-c4[nH]nc5ccccc45)[nH]c3c2)cc1 0.3 to 3 µM
COc1ccc(-c2ccc3nc(-c4[nH]nc5ccccc45)[nH]c3c2)cc1OC 0.3 to 3 µM

Please report the recorded IC50 for COc1ccc(C(=O)Oc2cc(-c3nc4ccccc4[nH]3)[nH]n2)cc1 . > 3 µM

And then CS(=O)(=O)c1ccc(-c2ccc3nc(-c4[nH]nc5ccccc45)[nH]c3c2)cc1 , what is it? > 3 µM

And then NS(=O)(=O)c1cc(C(=O)COc2cc(-c3nc4ccccc4[nH]3)[nH]n2)ccc1Cl , what is it? > 3 µM

----------
target or system: human KDR enzyme (Homo sapiens, UniProt P35968)
Construct: The cytoplasmic domain of human KDR enzyme is cloned in the form of a GST fusion; GST; made in house; host or cells: SF21 insect cells (baculovirus, pFastBac)
assay: Phosphorylation of the substrate PLCγ by the enzyme KDR in vitro (flashplate technique)
Assay type: biochemical
conditions used: Table VII, degrees of activity by IC50 range; read-out: Activity
outcome measure: IC50

Some entries whose results are on file:
compound	IC50
FC(F)(F)c1cccc(-c2ccc3nc(-c4[nH]nc5ccccc45)[nH]c3c2)c1 [Example 111]	> 3 µM
O=C(NCC1COc2ccccc2O1)c1ccc2[nH]c(-c3n[nH]c4ccccc34)nc2c1 (stereo not shown) [Example 65]	0.3 to 3 µM
NS(=O)(=O)c1ccc(CNC(=O)c2cccc3nc(-c4n[nH]c5ccccc45)[nH]c23)cc1 [Example 73]	0.3 to 3 µM
Cc1ccccc1-c1ccc2nc(-c3[nH]nc4ccccc34)[nH]c2c1 [Example 109]	0.3 to 3 µM
O=C(Oc1cc(-c2nc3ccccc3[nH]2)[nH]n1)c1ccc(C(F)(F)F)cc1 [Example 227]	> 3 µM

Find the measured IC50: item c1ccc(-c2ccc3nc(-c4[nH]nc5ccccc45)[nH]c3c2)cc1 [Example 97] , target or system human KDR enzyme (Homo sapiens, UniProt P35968). > 3 µM

And then O=C(Oc1cc(-c2nc3ccccc3[nH]2)[nH]n1)c1cc(C(F)(F)F)cc(C(F)(F)F)c1 [Example 226] , what is it? > 3 µM

And then CC(C)=CCC/C(C)=C/COc1cc(-c2nc3ccccc3[nH]2)[nH]n1 [Example 184] , what is it? 0.3 to 3 µM

And then O=C(Oc1cc(-c2nc3ccccc3[nH]2)[nH]n1)c1c(F)c(F)c(F)c(F)c1F [Example 220] , what is it? > 3 µM

And then O=C(NCc1ccc(C(F)(F)F)nc1)c1ccc2[nH]c(-c3n[nH]c4ccccc34)nc2c1 [Example 172] , what is it? 0.3 to 3 µM

And then O=C(Oc1cc(-c2nc3ccccc3[nH]2)[nH]n1)c1ccccc1 [Example 217] , what is it? 0.3 to 3 µM

And then Cc1ccc(-c2ccc3nc(-c4[nH]nc5ccccc45)[nH]c3c2)cc1C [Example 116] , what is it? > 3 µM

And then CC(C)c1ccc(-c2ccc3nc(-c4[nH]nc5ccccc45)[nH]c3c2)cc1 [Example 144] , what is it? 0.3 to 3 µM
